tested on: CRE E. coli; test: Growth of clinical strain CRE E. coli; assay type: cell-based, Escherichia coli; settings: 10 μM
metric: growth inhibition of CRE E. coli

Request: # get_value(readout='growth inhibition of CRE E. coli', item= KFFKFFKFFK-O-cacctgcaagag (antisense CACCTGCAAGAG; all peptide nucleic acid (PNA); (KFF)3K cell-penetrating peptide joined to the N-terminus through an O-linker) [α-fnrS] )
Response: inhibited

Request: # get_value(readout='growth inhibition of CRE E. coli', item= KFFKFFKFFK -O-taatcatggtat (antisense TAATCATGGTAT; all peptide nucleic acid (PNA); (KFF)3K cell-penetrating peptide joined to the N-terminus through an O-linker) [α-folC, 12-mer antisense PNA centered on start codon of folC, O-linker to (KFF)3K] )
Response: inhibited

Request: # get_value(readout='growth inhibition of CRE E. coli', item= KFFKFFKFFK -O-gctttcattccg (antisense GCTTTCATTCCG; all peptide nucleic acid (PNA); (KFF)3K cell-penetrating peptide joined to the N-terminus through an O-linker) [α-lexA, 12-mer antisense PNA centered on start codon of lexA, O-linker to (KFF)3K] )
Response: inhibited
